Data origin: patent US20210388097A1

assayedTarget: T1, his-tagged human BCMA protein (ACROBiosystems, catalog # BCA-H522y-100 ug) (human, UniProt Q02223 1-54)
T1 construct: limits of the bought construct are not otherwise stated; also called recombinant his-tagged human BCMA; not shown: his tag of the bought protein
T1 sequence: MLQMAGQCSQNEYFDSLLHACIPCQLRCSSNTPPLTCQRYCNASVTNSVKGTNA
measurementProtocol: SPR (Biacore T200), antibody captured on anti-human Fc, his-tagged human BCMA as analyte; fit with ka1/kd1/ka2/kd2 (model not named)
endpointName: ka2 (s⁻¹)

1) BCA7-2D8 antibody (antibody, V domains shown) VH: EVQLVESGGGLVKPGGSLRLSCAASGFTSSTAWMSWVRQAPGKGLEWVGRIKSKSDGGTTDYAAPVKGRFTISRDDSKNTLFLQMNSLKTEDTAVYYCAKGGGTYGYWGQGTTVTVSS VL: QSVLTQPASVSGSPGQSVTISCTGTSSSIGDSYYVSWYQQHPGKAPKLMIYDVSNRPSGVSNRFSGSKSGNTASLTISGLQAEDEADYYCGSYTSSGSYVFGTGTTLTVL = 0.0113
2) BCA7-2E1 antibody (antibody, V domains shown, also called BCA-2E1) VH: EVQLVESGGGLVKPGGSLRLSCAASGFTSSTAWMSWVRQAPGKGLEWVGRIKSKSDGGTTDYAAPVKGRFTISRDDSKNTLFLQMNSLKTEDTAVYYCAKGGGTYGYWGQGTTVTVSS VL: QSALTQPASVSGSPGQSVTISCTGTSSDGGGHTYVSWYQQHPGKAPKLMIYDVSNRPSWVSNRFSGSKSGNTASLTISGLQAEDEADYYCGSYTSSGSYVFGTGTKLTVL = 0.0018
3) BCA7-2D11 antibody (antibody, V domains shown) VH: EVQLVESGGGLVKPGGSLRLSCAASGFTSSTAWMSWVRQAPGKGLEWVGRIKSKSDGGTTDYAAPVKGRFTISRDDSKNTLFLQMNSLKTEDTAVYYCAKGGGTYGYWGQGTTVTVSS VL: SYELTQPASVSGSPGQSVTISCTGTSSVVGGHDYVSWYQQHPGKAPKLMIYDVSNRPSGVSNRFSGSKSGNTASLTISGLQAEDEADYYCGSYTSSGSYVFGTGTKVTVL = 0.00381
